FYI, the data here is from paper PMC5540273.

Attribute: %Inh
- Test system: KIT-autoinhibited;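 also: KINOMEscan kinase panel screen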
- condition_parameters: concentration: 1 μM, replicates: in singlicate; n = 1
Express the result in % but write the number alone.

Here is how some compounds turned out for %Inh.
N#Cc1cnc2cc(-c3cnc(CNCCN4CCOCC4)s3)ccc2c1Nc1ccc(Oc2ccccc2)cc1 [GW664114] ... 0
Cc1nn2c(=O)cc(N3CCO[C@H](C)C3)nc2n1Cc1cccc(Cl)c1Cl [GSK2373693] ... 0
COc1cc(Nc2nccc(N3CCC(NC(=O)Nc4ccc5c(c4)OCO5)C3)n2)cc(OC)c1OC (stereo not drawn) [GSK1379766] ... 5

Provide value of %Inh for this record tested with KIT-autoinhibited: Cl.O=C(Nc1ccc(Oc2ccc3[nH]c(NC(=O)c4ccco4)nc3c2)cc1)Nc1cc(C(F)(F)F)ccc1F [GW683134]
1

Provide value of %Inh for this record tested with KIT-autoinhibited: COc1ccc(C2=C(Nc3cccc(O)c3)C(=O)NC2=O)cc1 [SB-390766]
2

Provide value of %Inh for this record tested with KIT-autoinhibited: COC(=O)Nc1nc2cc(Oc3ccc(NC(=O)Nc4cccc(SC)c4)cc3)ccc2[nH]1.Cl [GW697999]
50

Provide value of %Inh for this record tested with KIT-autoinhibited: Cc1ccc(-c2ccc3occ(-c4ccc(S(C)=O)cc4)c3c2)nn1 (stereo not drawn)
0
